# Test system: HOP-92
# measurement_protocol: NCI tumour cell line growth inhibition, 48 h
The source made the active and inactive calls. No stated cut-off is given here; in the data, active = GI50 up to about 1.1 µM and inactive = higher. Non-standard residues stand in square brackets, D forms with d. Residues, ends and D or L forms follow the SMILES beside them. *: point of attachment. hSer = N[CH](CCO)C(=O)O; Boc = CC(C)(C)OC(=O)*
Bench note: report the call from label 1 for active, label 0 for inactive

• CC12CCC(C)(c3cc(O)c(O)cc31)c1cc(O)c(O)cc12 = label 0
• CC1=CCCC2C(C=O)(C1)CC(C)C2(CO)CC/C(=C/CO)CO (centres undefined) = label 0
• Cc1ccc2nc(NC(=O)/C(Cc3nc4ccc(Cl)cc4nc3O)=N\NC(C)(C)C)sc2c1 = label 0
• CC1CCCC(C(O)CC2CC(=O)N(c3ccccc3)C(=O)C2)C1=O (centres undefined) = label 0
• COc1ccc(CC2C(=O)NC(C)C(=O)N(C)C3C(=O)N(C)C(Cc4ccc(O)c(c4)Oc4ccc(cc4)C3O)C(=O)NC(C)C(=O)NC(C)C(=O)N2C)cc1.COc1ccc(CC2C(=O)NC(C)C(=O)N(C)C3Cc4ccc(cc4)Oc4cc(ccc4O)CC(C(=O)NC(C)C(=O)NC(C)C(=O)N2C)N(C)C3=O)cc1 (centres undefined) = label 1
• Clc1ccc(OCc2nnc3n2N=C(c2ccccc2)CS3)cc1 = label 0
• Cn1nc(-c2ccccc2)c(C(=O)/C=C/c2ccc(Cl)cc2)c(N2CCCCC2)c1=O = label 0
• COc1ccc2c(-c3ccc(O)cc3)c(Oc3ccc(Cl)cc3)c(=O)oc2c1 = label 0

Q: What outcome does the record of this test show for COCCC(NC(=O)C(CC(C)C)NC(=O)OC(C)(C)C)C(N)=O (stereo not drawn) (Boc-Leu-[hSer](Me)-NH2; configuration not given here) ?
Ans: label 0

Q: Same read-out for `N#CC(=S)Nc1ccc(F)cc1` ?
Ans: label 0

* * *

# System: SF-539
# measurement_protocol: NCI tumour cell line growth inhibition, 48 h
Activity calls are given as the source filed them. Rule as the data show it: active = GI50 up to about 1.1 µM and inactive = higher.
Output constraint: value belongs to active, inactive

- C=C1c2nc3ccccc3n2C=C(c2ccc(OC)cc2)N1c1ccc(OC)cc1: inactive
- CCOC(=O)C(NC(=O)c1cccc(Cl)c1)(Nc1ccc(S(=O)(=O)Nc2cc(C)on2)cc1)C(F)(F)F (configuration not stated): inactive
- COc1ccc(Cc2cc(OC)c(OC)c(OC)c2)cc1O: active
- CC(=O)C1(O)Cc2c(O)c3c(c(O)c2C(OC2CC(N)C(O)C(C)O2)C1)C(=O)c1ccccc1C3=O (configuration not stated): active
- O=C1NC2(CN3CCC2CC3)C(=O)N1CN(Cc1ccccc1)c1ccccc1 (configuration not stated): inactive
- CC(C)OP(=O)(c1ccccc1)c1ccc2c(c1)OCCOCCOCCOCCO2 (configuration not stated): inactive
- Cc1ccc(S(=O)(=O)N/N=C(/c2nc3ccc([N+](=O)[O-])cc3nc2O)C(O)c2ccc(C(O)/C(=N\NS(=O)(=O)c3ccc(C)cc3)c3nc4ccc([N+](=O)[O-])cc4nc3O)cc2)cc1 (configuration not stated): inactive
- COC(=O)c1c[nH]c2nc(N3CCOCC3)nn2c1=O: inactive

Q: Can you look up the reported call for COC(=O)C1=C(O)c2cc3c(cc2[C@H](c2cc(OC)c(OC)c(OC)c2)C1C(=O)OC)OCO3 (some centres not stated) for me?
Ans: inactive

Q: What do you get for `Cc1ccc(C2=NOC(=O)[C@@H]3CCCC[C@@H]23)cc1` ?
Ans: inactive

* * *

# Test system: SNB-75
# measurement_protocol: NCI tumour cell line growth inhibition, 48 h
The source made the active and inactive calls. Cut-off read from the data, not from the text of the source: active = GI50 up to about 1.1 µM and inactive = higher.
Let's look at some compounds and their measured GI50.

* [N-]=[N+]=NC(CI)c1cn([C@H]2C[C@H](O)[C@@H](CO)O2)c(=O)[nH]c1=O (some centres undefined) | > 100 µM (inactive)

Q: Could you tell me which GI50 is on file for O=C(c1ccccc1)C1N=NN(Cc2ccccc2[N+](=O)[O-])C1C(=O)c1ccccc1 (centres undefined) ?
Ans: 41.5 µM (inactive)

Q: Field entry: CC1NOC(=O)C1/N=N/c1ccccc1Br (centres undefined)
Ans: 31.4 µM (inactive)

Q: Also need COc1ccc(/C=C2/SC(c3ccccc3)N(NC(=O)CCCCCCCCC(=O)NN3C(=O)/C(=C\c4ccc(OC)c(OC)c4)SC3c3ccccc3)C2=O)cc1OC (centres undefined) , thanks.
Ans: 35.2 µM (inactive)

Q: Another compound to look at: `C=CC(C)(C)c1cc([C@@H]2COc3cc(O)ccc3C2=O)c(O)c(O)c1OC`
Ans: 27.4 µM (inactive)

* * *

# Tested on: SK-MEL-5
# measurement_protocol: NCI tumour cell line growth inhibition, 48 h
Calls of active or inactive are those of the source. Rule as the data show it: active = GI50 up to about 1.1 µM and inactive = higher.
readout_name: GI50

The following compounds have reported results that may help.
• N#CCCN(CCC#N)c1ccc(/C=C2\N=C(c3ccccc3)N(c3ccc(F)cc3)C2=O)cc1 = > 100 µM (inactive)
• S=C1/C(=N/c2ccccc2)N(C2CCCCC2)/C(=N\C2CCCCC2)N1c1ccccc1 = > 100 µM (inactive)
• O=C(Nc1ccn(C2CC(O)C(COC(c3ccccc3)(c3ccccc3)c3ccccc3)O2)c(=O)n1)c1ccccc1 (stereo not given) = 2.33 µM (inactive)
• Cc1nc(OCc2ccccc2)c2ncn(CCO)c2n1 = > 100 µM (inactive)

We next turn to a different compound, shown below.
Q: For the compound shown here, `c1ccc(OCCSCCCCCCCCCCSCCOc2ccccc2)cc1` , give the reported GI50.
Ans: 28.9 µM (inactive)

* * *

# System: 786-0
# measurement_protocol: NCI tumour cell line growth inhibition, 48 h
Calls of active or inactive are those of the source. No stated cut-off is given here; in the data, active = GI50 up to about 1.1 µM and inactive = higher.
readout_name: GI50

Q: Given the entry `CCN(CC)CCO/N=C1\CC[C@H]2[C@@H]3CCc4cc(OC)ccc4[C@H]3CC[C@]12C` , report its measured GI50.
Ans: 1.59 µM (inactive)

Q: Next compound up: COC(=O)[C@@]12C(=O)C=CC(=O)[C@@H]1C1C(=CC2COC(C)=O)O[C@@H]2OC3(CCCCC3)O[C@H]12 (some centres undefined)
Ans: 7.1 µM (inactive)

Q: Another compound: COc1cc2c(cc1OC)C1c3ccccc3C(C#N)(C2)N(C(=O)c2ccccc2)C1O (centres undefined)
Ans: > 100 µM (inactive)

Q: // repeat for O=C1C2C(C(=O)N1c1ccccc1)C1([N+](=O)[O-])C=C3c4ccccc4N(C(=O)c4ccccc4)C32C2C(=O)N(c3ccccc3)C(=O)C21 (centres undefined) and report
Ans: > 100 µM (inactive)

Q: Okay, and `Cc1ccc(S(=O)(=O)OCC(=O)O)cc1` ?
Ans: > 100 µM (inactive)

Q: Another compound: `COC(=O)[C@]1(C)CCCn2c(=O)n(-c3ccccc3)c(=O)n21`
Ans: > 100 µM (inactive)

Q: Another compound to look at: `O=c1[nH]nc(Cc2ccc(Cl)cc2)n1/N=C/c1cccs1`
Ans: 26.6 µM (inactive)

Q: Also CN(C)CCCOC(=O)C(c1ccccc1)C1(O)CCSCC1 (centres undefined) ?
Ans: > 100 µM (inactive)

Q: Item: `CC(C)(C)c1ccc(O)c(CN(Cc2cc(C(C)(C)C)ccc2O)C2CCCCC2)c1`
Ans: 16 µM (inactive)

* * *

# System: UO-31
# measurement_protocol: NCI tumour cell line growth inhibition, 48 h
Calls of active or inactive are those of the source. No stated cut-off is given here; in the data, active = GI50 up to about 1.1 µM and inactive = higher.
Could you please pick one outcome from this set? active, inactive

See these solved cases before continuing.
* COC(=O)C1=C(O)c2cc3c(cc2[C@H](c2cc(OC)c(OC)c(OC)c2)C1)OCO3 | inactive
* CCN(CC)CCNC(=O)c1cc2cc(NC(=O)c3cc4cc(NC(=O)c5cc6cc(N)ccc6[nH]5)ccc4[nH]3)ccc2[nH]1 | inactive
* O=C(CCC(=O)OCC1OC(O)(CC2OC(CO)C(O)C(O)C2O)C(O)C1O)OCc1ccccc1 (stereo not given) | inactive

Next up:
Q: Test call for this molecule, please: `c1ccc(-c2c(-c3[nH]c4ccccc4c3-c3ccccc3)[nH]c3ccccc23)cc1`
Ans: inactive

* * *

# Tested on: NCI-H226
# measurement_protocol: NCI tumour cell line growth inhibition, 48 h
The source made the active and inactive calls. Rule as the data show it: active = GI50 up to about 1.1 µM and inactive = higher.
// one of active, inactive, no free text

These recorded examples may help you get a feel for the data.
* Nc1nc(Cl)cc(NCC2(CO)CC(c3ccccc3)C2)n1 (centres undefined) | inactive
* COc1cc(C2C(C(=O)Nc3ccccc3C)=C(C)NC(C)=C2C(=O)Nc2ccccc2C)ccc1O | inactive
* O=C(O)/C=C/c1c[nH]c(=O)[nH]c1=O | inactive
* CCN(CC)CCO/N=C1\CC[C@H]2[C@@H]3CCc4cc(OC)ccc4[C@H]3CC[C@]12C | inactive
* CN(N)c1cc(=O)[nH]c(=O)[nH]1 | inactive

Q: Kindly provide the recorded test outcome for the following molecule: `Cn1c2ccccc2c2ccc3c(c21)C(=O)C(c1ccccc1)=CC3=O`
Ans: inactive

Q: Input `COc1cc(/C=C/C(=O)CC(=O)/C=C/c2ccc(O)c(OC)c2)ccc1O`
Ans: inactive

Q: Param item: c1cn(C23C4C5C6C4C2C6C53)cn1 (centres undefined)
Ans: inactive

Data origin, for the record: ChEMBL document CHEMBL1201862
